Readings of concentration at 1 h for the listed compounds
# Assay Name: Measurement of brain and systemic concentration after oral administration
# Assay type: in vivo
# Test Context: rat, brain; male wistar rats; oral 100 mg/kg; formulated in 10% PEG400/90% MC0.5%; sampled at 1 h; read-out: brain concentration [B]
# Procedure: Measurement of Brain and Systemic Concentration after Oral Administration: In order to assess brain penetration, the concentration of the compound is measured in plasma ([P]), and brain ([B]), sampled 1 h or 3 h (or at different time points) following oral administration (100 mg/kg) to male wistar rats (n=3). […] All samples are extracted with MeOH and analyzed by LC-MS/MS. Concentrations are determined with the help of calibration curves. […]
Measure: concentration at 1 h (ng/g)

> print(dat)
                               smiles.entry  measured
1  Cc1ccc(C(=O)N2CCOC[C@H]2Cc2cccc(-n3nccn3)c2)c(-n2nccn2)c1C      1970
2  Cc1ccc(C(=O)N2CCOC[C@H]2Cc2cc(-n3nccn3)ccc2F)c(-n2nccn2)c1      4420
3  C[C@@H]1CN(C(=O)c2ccccc2-n2nccn2)[C@H](Cc2cc(-n3nccn3)ccc2F)CO1      5930
4  Cc1ccc(C(=O)N2CCOC[C@H]2Cc2cc(-n3nccn3)ccc2Cl)c(-n2nccn2)c1      5130

###

# Tgt: UniProtKB P08684
# Assay Name: CYP3A4 inhibition assay (human liver microsomes, testosterone 6β-hydroxylation)
# Test Context: read-out: CYP3A4 IC50, 40 μM testosterone
IC50 overview
Measure: IC50

> print(dat)
                                   compound  measured
1  COc1ccc(C[C@@H]2COCCN2C(=O)c2ccccc2-n2nccn2)cc1-c1cccnn1 [Example 7]   > 50 µM
2  COc1ccc(-n2nccn2)c(C(=O)N2CCOC[C@H]2Cc2cccc(-n3nccn3)c2)c1F [Example 33]   > 50 µM
3  COc1ccc(-n2nccn2)c(C(=O)N2CCOC[C@H]2Cc2cccc(-c3ncccn3)c2)c1 [Example 50]   > 50 µM

###

# Tgt: CYP3A4 (Homo sapiens (Human), UniProt P08684)
# Sequence (P08684 whole entry): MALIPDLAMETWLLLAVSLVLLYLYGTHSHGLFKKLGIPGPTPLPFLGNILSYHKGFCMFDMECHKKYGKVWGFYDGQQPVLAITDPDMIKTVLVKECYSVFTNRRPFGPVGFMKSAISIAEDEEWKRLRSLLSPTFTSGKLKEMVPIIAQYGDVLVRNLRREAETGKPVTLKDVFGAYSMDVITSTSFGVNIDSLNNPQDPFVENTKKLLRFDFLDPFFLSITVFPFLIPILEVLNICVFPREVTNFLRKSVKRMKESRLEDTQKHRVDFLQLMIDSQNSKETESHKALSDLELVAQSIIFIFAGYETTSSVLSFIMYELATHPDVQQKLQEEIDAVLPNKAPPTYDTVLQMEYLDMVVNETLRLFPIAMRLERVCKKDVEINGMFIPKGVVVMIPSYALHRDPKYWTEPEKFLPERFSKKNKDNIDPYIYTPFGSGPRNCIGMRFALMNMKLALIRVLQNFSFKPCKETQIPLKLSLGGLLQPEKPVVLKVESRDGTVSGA
# Assay Name: CYP3A4 inhibition assay (human liver microsomes, testosterone 6β-hydroxylation)
# Test Context: read-out: CYP3A4 IC50, 40 μM testosterone
Readings of IC50 for the listed molecules
Measure: IC50

> print(dat)
                                   molecule                                       tgt  measured
1  COc1ccc(C(=O)N2CCOC[C@H]2Cc2cccc(-n3nccn3)c2)c(-n2nccn2)c1 [Example 93]  CYP3A4 (Homo sapiens (Human), UniProt P08684)   > 50 µM
2  COc1ccc(-n2nccn2)c(C(=O)N2CCOC[C@H]2Cc2cccc(-n3nccn3)c2)c1 [Example 32]  CYP3A4 (Homo sapiens (Human), UniProt P08684)   > 50 µM
3  N#Cc1ccc(-n2nccn2)c(C(=O)N2CCOC[C@H]2Cc2cccc(-n3nccn3)c2)c1 [Example 31]  CYP3A4 (Homo sapiens (Human), UniProt P08684)   > 50 µM

###

# Tgt: CYP3A4 (Homo sapiens (Human), UniProt P08684)
# Assay Name: CYP3A4 inhibition assay (human liver microsomes, testosterone 6β-hydroxylation)
# Test Context: read-out: CYP3A4 IC50, 40 μM testosterone
Overview of recorded IC50 for various compounds
Measure: IC50 (µM)

> print(dat)
                                smiles.entry                                       tgt  operator.symbol  measured
 1  COc1cc(C(=O)N2CCOC[C@H]2Cc2cc(-n3nccn3)ccc2F)c(-n2nccn2)cc1C  CYP3A4 (Homo sapiens (Human), UniProt P08684)                =        19
 2  C[C@@H]1CN(C(=O)c2ccc(Cl)cc2-n2nccn2)[C@H](Cc2cccc(-c3ncccn3)c2)CO1  CYP3A4 (Homo sapiens (Human), UniProt P08684)                =        35
 3  Cc1ccc(C(=O)N2CCOC[C@H]2Cc2cc(-c3ncccn3)ccc2F)c(-n2nccn2)c1  CYP3A4 (Homo sapiens (Human), UniProt P08684)                >        50
 4  O=C(c1ccc(C(F)(F)F)cc1-n1nccn1)N1CCOC[C@H]1Cc1cc(-n2nccn2)ccc1F  CYP3A4 (Homo sapiens (Human), UniProt P08684)                =       7.4
 5  O=C(c1ccc(Cl)cc1-n1nccn1)N1CCOC[C@H]1Cc1cc(-c2ncon2)ccc1F  CYP3A4 (Homo sapiens (Human), UniProt P08684)                =        24
 6  COc1cc(C(=O)N2CCOC[C@H]2Cc2cccc(-n3nccn3)c2)c(-n2nccn2)cc1OC  CYP3A4 (Homo sapiens (Human), UniProt P08684)                >        50
 7  O=C(c1cc(Cl)ccc1-n1nccn1)N1CCOC[C@H]1Cc1cccc(-c2ncccn2)c1  CYP3A4 (Homo sapiens (Human), UniProt P08684)                =        20
 8  C[C@@H]1CN(C(=O)c2ccccc2-n2nccn2)[C@H](Cc2cc(-n3nccn3)ccc2F)CO1  CYP3A4 (Homo sapiens (Human), UniProt P08684)                =        21
 9  COc1ccc(C[C@@H]2COCCN2C(=O)c2ccc(C)cc2-n2nccn2)cc1-c1ncon1  CYP3A4 (Homo sapiens (Human), UniProt P08684)                =        41
10  O=C(c1cc(F)c(F)cc1-n1nccn1)N1CCOC[C@H]1Cc1cccc(-n2nccn2)c1  CYP3A4 (Homo sapiens (Human), UniProt P08684)                =        17
11  O=C(c1ccc(Cl)cc1-n1nccn1)N1CCOC[C@H]1Cc1cc(-c2ncccn2)ccc1F  CYP3A4 (Homo sapiens (Human), UniProt P08684)                =        17
12  Cc1ccc(C(=O)N2CCOC[C@H]2Cc2cc(-n3nccn3)ccc2C)c(-n2nccn2)c1  CYP3A4 (Homo sapiens (Human), UniProt P08684)                =        27
13  Cc1ccc(-n2nccn2)c(C(=O)N2[C@H](Cc3cccc(-n4nccn4)c3)COC[C@@H]2C)c1  CYP3A4 (Homo sapiens (Human), UniProt P08684)                =       6.8
14  Cc1cccc(C(=O)N2CCOC[C@H]2Cc2cccc(-c3ncon3)c2)c1-n1nccn1  CYP3A4 (Homo sapiens (Human), UniProt P08684)                =        25
15  Cc1ccc(-n2nccn2)c(C(=O)N2CCOC[C@H]2Cc2cc(-n3cccn3)ccc2C)c1  CYP3A4 (Homo sapiens (Human), UniProt P08684)                =        14
16  O=C(c1cc(Cl)ccc1-n1nccn1)N1CCOC[C@H]1Cc1cc(-c2ncccn2)ccc1F  CYP3A4 (Homo sapiens (Human), UniProt P08684)                =        17
17  O=C(c1cccc(Cl)c1-n1nccn1)N1CCOC[C@H]1Cc1cccc(-n2nccn2)c1  CYP3A4 (Homo sapiens (Human), UniProt P08684)                =        22
18  Cc1ccc(C(=O)N2CCOC[C@H]2Cc2cc(Cl)cc(-n3nccn3)c2)c(-n2nccn2)c1  CYP3A4 (Homo sapiens (Human), UniProt P08684)                =        21
19  Cc1ccc(-n2nccn2)cc1C[C@@H]1COCCN1C(=O)c1ccc(Cl)cc1-n1nccn1  CYP3A4 (Homo sapiens (Human), UniProt P08684)                =        14
20  O=C(c1cc(F)ccc1-n1nccn1)N1CCOC[C@H]1Cc1cccc(-n2nccn2)c1  CYP3A4 (Homo sapiens (Human), UniProt P08684)                =        24
21  O=C(c1ccccc1-n1nccn1)N1CCOC[C@H]1Cc1cccc(-c2nccs2)c1  CYP3A4 (Homo sapiens (Human), UniProt P08684)                =         2
